B1: Azoarcus group I ribozyme (parent)
chain: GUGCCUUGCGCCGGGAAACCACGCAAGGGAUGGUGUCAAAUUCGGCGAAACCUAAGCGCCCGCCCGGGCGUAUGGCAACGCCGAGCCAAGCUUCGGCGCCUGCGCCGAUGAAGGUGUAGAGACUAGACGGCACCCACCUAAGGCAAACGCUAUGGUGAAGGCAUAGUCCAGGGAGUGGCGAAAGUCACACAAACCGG

# Variants of: B1
# assay.info: reverse-splicing fitness (ratio to wild type); higher = more active; in vitro selection; Mg2+ level not given
observation.type: reverse-splicing fitness

mutation	reverse-splicing fitness
C82A A111G A120C A145C C169U	0.0116
C82U A111G A145U C150U C169G U176A	0.0118

Would you kindly look at the next entry?
Query: reverse-splicing fitness lookup needed for C82A C150G C169G U176G , thanks.
Result: 0.00581
